Where do these numbers come from? They come from patent US20150258192A1.

Measured % activity accompanies every entry in the list below.
Biological target: ULK2(h) (Homo sapiens, UniProt Q8IYT8)
Sequence (Q8IYT8 1-1036): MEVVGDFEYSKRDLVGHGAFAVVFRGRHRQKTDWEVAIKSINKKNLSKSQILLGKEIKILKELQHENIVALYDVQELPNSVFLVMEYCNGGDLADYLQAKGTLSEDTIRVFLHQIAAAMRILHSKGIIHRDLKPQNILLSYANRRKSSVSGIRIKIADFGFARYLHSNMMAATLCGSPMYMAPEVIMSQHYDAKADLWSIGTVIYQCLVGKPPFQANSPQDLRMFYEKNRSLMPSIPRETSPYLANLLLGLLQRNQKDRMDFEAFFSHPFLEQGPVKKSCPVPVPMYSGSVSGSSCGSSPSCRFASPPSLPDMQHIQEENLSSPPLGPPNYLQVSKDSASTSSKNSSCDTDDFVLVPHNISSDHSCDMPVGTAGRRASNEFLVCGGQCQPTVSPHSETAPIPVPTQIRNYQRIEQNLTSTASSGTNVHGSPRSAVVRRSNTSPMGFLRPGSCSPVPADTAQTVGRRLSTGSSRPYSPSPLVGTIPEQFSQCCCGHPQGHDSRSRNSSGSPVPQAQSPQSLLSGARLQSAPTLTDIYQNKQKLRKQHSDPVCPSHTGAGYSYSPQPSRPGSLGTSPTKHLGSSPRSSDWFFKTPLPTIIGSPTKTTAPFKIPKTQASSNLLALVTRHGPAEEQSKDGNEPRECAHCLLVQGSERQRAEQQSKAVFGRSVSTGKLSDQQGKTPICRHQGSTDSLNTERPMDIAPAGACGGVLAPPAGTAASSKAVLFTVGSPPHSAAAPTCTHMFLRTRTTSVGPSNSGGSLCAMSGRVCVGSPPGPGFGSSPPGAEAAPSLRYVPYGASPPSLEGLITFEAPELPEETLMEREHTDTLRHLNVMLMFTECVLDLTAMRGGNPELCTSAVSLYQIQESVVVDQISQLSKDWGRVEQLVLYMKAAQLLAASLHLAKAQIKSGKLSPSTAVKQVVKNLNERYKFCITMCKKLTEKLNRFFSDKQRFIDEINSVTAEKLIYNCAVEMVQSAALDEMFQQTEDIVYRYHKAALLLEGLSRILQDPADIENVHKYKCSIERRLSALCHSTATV
Assay: Kinase Profiling Assay
Type: biochemical
Settings: peptide 100 μM
No end group written: not given here.

{"monomer-sequence": "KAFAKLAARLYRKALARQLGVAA [MMI-0400]", "units-text": "%", "% activity": 131}
{"monomer-sequence": "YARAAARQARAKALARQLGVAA [MMI-0100]", "units-text": "%", "% activity": 123}
{"monomer-sequence": "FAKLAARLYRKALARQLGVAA [MMI-0300]", "units-text": "%", "% activity": 122}
{"monomer-sequence": "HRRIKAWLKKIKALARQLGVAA (Mammal) [MMI-0500]", "units-text": "%", "% activity": 124}
{"monomer-sequence": "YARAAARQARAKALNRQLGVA (Mammal) [MMI-0200]", "units-text": "%", "% activity": 132}

====

Molecular target: ULK3(h) (Homo sapiens)
Sequence (Q6PHR2 1-472): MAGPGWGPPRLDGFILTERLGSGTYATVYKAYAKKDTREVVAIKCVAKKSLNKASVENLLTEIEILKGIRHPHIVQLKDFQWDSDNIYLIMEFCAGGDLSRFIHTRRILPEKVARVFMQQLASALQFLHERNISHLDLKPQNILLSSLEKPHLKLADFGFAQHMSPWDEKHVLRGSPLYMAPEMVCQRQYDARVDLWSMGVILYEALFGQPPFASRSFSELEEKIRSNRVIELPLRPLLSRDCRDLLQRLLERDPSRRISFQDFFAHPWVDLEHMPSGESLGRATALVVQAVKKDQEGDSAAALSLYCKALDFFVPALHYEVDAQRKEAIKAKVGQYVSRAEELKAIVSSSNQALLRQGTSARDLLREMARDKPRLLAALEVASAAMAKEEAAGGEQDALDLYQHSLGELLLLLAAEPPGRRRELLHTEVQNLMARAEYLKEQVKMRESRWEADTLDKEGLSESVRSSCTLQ
Test: Kinase Profiling Assay
Assay type: biochemical
Details: peptide 100 μM
No end group written: not given here.

{"monomer-sequence": "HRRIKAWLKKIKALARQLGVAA (Mammal) [MMI-0500]", "% activity [%]": 177}
{"monomer-sequence": "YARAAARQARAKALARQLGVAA [MMI-0100]", "% activity [%]": 142}
{"monomer-sequence": "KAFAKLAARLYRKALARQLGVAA [MMI-0400]", "% activity [%]": 147}
{"monomer-sequence": "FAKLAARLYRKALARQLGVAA [MMI-0300]", "% activity [%]": 167}
{"monomer-sequence": "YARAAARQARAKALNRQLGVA (Mammal) [MMI-0200]", "% activity [%]": 164}

====

Biological target: Lck(h) activated (Homo sapiens)
Construct: purchased Millipore
Sequence (P06239 whole entry): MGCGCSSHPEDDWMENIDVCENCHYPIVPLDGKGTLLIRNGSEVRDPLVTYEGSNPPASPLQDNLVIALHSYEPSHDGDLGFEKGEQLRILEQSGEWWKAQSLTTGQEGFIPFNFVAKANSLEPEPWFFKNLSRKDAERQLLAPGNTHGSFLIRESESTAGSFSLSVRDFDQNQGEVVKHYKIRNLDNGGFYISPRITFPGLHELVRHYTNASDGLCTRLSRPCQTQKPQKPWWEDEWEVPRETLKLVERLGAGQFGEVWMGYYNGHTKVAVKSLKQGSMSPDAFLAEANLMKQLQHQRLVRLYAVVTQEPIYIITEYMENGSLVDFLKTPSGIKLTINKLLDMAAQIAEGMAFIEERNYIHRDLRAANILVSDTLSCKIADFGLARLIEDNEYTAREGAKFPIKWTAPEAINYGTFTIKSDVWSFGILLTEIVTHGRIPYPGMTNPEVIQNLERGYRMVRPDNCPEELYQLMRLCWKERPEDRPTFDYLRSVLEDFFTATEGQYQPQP
Assay: Kinase Profiling Assay
Assay type: biochemical
Settings: peptide 100 μM
Measured % activity accompanies every entry in the list below.
property-label: % activity (%)

{"monomer-sequence": "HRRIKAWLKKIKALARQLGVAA (Mammal) [MMI-0500]", "measured": 76}
{"monomer-sequence": "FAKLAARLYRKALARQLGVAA [MMI-0300]", "measured": 243}
{"monomer-sequence": "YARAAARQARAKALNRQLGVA (Mammal) [MMI-0200]", "measured": 90}
{"monomer-sequence": "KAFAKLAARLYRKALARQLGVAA [MMI-0400]", "measured": 216}

====

Target: PKG1β(h) (Homo sapiens)
Sequence (Q13976 1-686 isoform Q13976-2): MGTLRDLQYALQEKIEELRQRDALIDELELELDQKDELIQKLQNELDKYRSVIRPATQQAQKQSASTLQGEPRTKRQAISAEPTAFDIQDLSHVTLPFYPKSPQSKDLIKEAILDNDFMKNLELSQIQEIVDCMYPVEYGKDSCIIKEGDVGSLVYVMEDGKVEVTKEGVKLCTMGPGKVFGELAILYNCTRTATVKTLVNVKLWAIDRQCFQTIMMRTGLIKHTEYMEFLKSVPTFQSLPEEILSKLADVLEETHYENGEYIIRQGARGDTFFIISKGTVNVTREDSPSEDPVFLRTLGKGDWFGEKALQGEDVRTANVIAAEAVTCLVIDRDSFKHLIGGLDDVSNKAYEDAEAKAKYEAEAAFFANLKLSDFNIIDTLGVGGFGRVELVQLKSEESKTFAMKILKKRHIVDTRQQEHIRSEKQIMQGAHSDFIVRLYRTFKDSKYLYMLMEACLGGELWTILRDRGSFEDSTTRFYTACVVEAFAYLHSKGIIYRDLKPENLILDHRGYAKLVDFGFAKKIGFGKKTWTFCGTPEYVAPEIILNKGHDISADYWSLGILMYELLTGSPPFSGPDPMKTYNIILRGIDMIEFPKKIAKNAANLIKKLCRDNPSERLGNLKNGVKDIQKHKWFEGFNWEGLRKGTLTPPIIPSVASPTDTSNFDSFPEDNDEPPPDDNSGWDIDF
Assay: Kinase Profiling Assay
Type: biochemical
Conditions: peptide 100 μM
No end group written: not given here.
For each record, check the reported % activity: if it is below 60% write Met, else write Not met.

{"monomer-sequence": "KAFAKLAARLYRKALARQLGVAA [MMI-0400]", "label": "Met"}
{"monomer-sequence": "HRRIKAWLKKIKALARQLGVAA (Mammal) [MMI-0500]", "label": "Met"}
{"monomer-sequence": "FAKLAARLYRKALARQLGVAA [MMI-0300]", "label": "Met"}
{"monomer-sequence": "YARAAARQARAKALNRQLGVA (Mammal) [MMI-0200]", "label": "Met"}
{"monomer-sequence": "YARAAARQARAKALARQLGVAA [MMI-0100]", "label": "Not met"}

====

Biological target: JAK2(h) (Homo sapiens, UniProt O60674)
Construct: purchased Millipore
Sequence (O60674 whole entry): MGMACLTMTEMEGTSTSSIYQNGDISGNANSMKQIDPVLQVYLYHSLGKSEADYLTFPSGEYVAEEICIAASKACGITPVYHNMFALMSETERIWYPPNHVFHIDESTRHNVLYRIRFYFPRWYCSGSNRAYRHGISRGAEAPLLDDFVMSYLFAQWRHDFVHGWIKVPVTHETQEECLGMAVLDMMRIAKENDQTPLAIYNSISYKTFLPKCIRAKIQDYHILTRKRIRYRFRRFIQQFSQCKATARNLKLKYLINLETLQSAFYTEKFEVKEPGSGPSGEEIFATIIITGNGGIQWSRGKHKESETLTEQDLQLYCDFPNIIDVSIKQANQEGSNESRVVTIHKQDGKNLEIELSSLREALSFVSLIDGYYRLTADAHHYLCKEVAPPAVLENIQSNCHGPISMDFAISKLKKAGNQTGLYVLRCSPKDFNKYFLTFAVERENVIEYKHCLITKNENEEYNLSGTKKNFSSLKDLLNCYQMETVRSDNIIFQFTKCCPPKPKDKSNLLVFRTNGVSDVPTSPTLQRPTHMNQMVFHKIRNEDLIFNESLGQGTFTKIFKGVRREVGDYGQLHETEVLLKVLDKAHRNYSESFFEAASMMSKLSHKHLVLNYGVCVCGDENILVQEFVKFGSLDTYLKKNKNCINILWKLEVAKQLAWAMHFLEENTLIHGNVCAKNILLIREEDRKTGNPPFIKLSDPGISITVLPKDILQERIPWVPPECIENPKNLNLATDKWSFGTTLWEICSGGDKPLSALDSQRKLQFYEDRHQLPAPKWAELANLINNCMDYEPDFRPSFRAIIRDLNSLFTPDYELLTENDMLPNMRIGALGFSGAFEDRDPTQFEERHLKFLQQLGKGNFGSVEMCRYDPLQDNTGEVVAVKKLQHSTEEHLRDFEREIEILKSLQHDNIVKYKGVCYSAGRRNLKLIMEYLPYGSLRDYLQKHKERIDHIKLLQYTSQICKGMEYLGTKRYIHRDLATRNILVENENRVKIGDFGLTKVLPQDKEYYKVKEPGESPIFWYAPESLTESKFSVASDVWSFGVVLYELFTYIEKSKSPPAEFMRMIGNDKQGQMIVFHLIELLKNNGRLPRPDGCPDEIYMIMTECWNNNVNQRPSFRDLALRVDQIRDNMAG
Test: Kinase Profiling Assay
Assay type: biochemical
Settings: peptide 100 μM
No end group written: not given here.
Measured % activity accompanies every entry in the list below.

{"monomer-sequence": "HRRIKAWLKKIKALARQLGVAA (Mammal) [MMI-0500]", "subject-of-test": "JAK2(h) (Homo sapiens, UniProt O60674)", "% activity, %": 49}
{"monomer-sequence": "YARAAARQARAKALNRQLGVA (Mammal) [MMI-0200]", "subject-of-test": "JAK2(h) (Homo sapiens, UniProt O60674)", "% activity, %": 131}
{"monomer-sequence": "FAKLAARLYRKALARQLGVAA [MMI-0300]", "subject-of-test": "JAK2(h) (Homo sapiens, UniProt O60674)", "% activity, %": 133}
{"monomer-sequence": "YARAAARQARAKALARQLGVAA [MMI-0100]", "subject-of-test": "JAK2(h) (Homo sapiens, UniProt O60674)", "% activity, %": 89}
